The reported measurements were obtained from PubChem BioAssay (NCI).

Measured growth by item
System: HS 578T breast
Assay: NCI-60 one-dose screen, 48 h (100 = growth as untreated, 0 = no growth, -100 = all killed)
Details: 10 µM unless noted
The panel holds about 83,000 compounds, 20% with a hit somewhere; the sample as a whole holds those more often.
Could you give me the number in %? Just the number is fine.

Worked examples, 8 compounds total:
compound	unitsLabel	quantitativeReadout
Cc1nn(C)c2ncnc(N/N=C/c3cccc(O)c3O)c12	%	52.3
Cc1ccc2c(c1)=C/C(=C\c1cc(-c3ccccc3)[nH]c1O)C(=O)N=2	%	41.9
C=C(C)[C@@H]1CC[C@]2(C(=O)N3CCN(C)CC3)CC[C@]3(C)[C@H](CC[C@@H]4[C@@](C)(CCC(=O)O)[C@H](C(=C)C)CC[C@]43C)[C@@H]12	%	86.7
N#Cc1nn(-c2cc(=O)[nH]c3ccc(Br)cc23)c(N)c1C#N	%	88.6
CC(O)Cc1c[nH]c(=O)[nH]c1=O (centres undefined)	%	103
COc1ccc(/C=C2\c3cc(OC)c(OC)c(OC)c3CC[C@@H]2O)cc1F	%	37.3
CCOC(=O)c1nnn(Cc2cc(=O)oc3ccc(O)cc23)c1C	%	93.5
O=C(O)CCCCCCCCCCN1C(=O)/C(=C2/C(=O)N(CC(=O)O)c3ccc(Br)cc32)SC1=S	%	85

# next compound below
Name the recorded growth for "O=C(Nc1ncc(Cc2ccccc2)s1)c1sc2ccccc2c1Cl" .
13.5

====

Tested on: HT29 colon
Assay: NCI-60 one-dose screen, 48 h
Details: 10 µM unless noted
This is part of a sample that, as a whole, favours compounds with a hit. Of some 83,000 tested, about 20% had one in any assay. The source made the active and inactive calls. The calls were made as follows: active = growth percent below 10; inactive = the rest.
Mark one answer only. Choices: active, inactive

compound	answerLabel
COc1ccc(/C=C(\C(=O)NCc2cccnc2)S(=O)(=O)c2ccccc2)cc1OC	active
Clc1ccc(-c2cc(-c3ccccc3)nc(N3CCN(CCCNc4ccnc5cc(Cl)ccc45)CC3)n2)cc1	active

Hi team, can someone confirm the assay call for "O=C(/C=C/c1cccc(Oc2ccccc2)c1)c1ccc(Nc2nc(Nc3ccc(F)cc3)nc(Nc3ccc(Cl)cc3)n2)cc1" ?
inactive

====

System: LOX IMVI melanoma
Experiment: NCI-60 one-dose screen, 48 h (100 = growth as untreated, 0 = no growth, -100 = all killed)
Settings: 10 µM unless noted
Compounds without any hit were thinned out: in the full panel of roughly 83,000, 20% have a hit.
The reader will find reported growth values listed item by item below.
Write the value in % as a bare number.

Query (compound): "CNC(=O)c1cc(Oc2ccc3c(c2)sc2nc(-c4ccc(NC(=O)[C@@H](NC(=O)OC)C(C)C)cc4)cn23)ccn1" ; field requested: growth
67.2

For "COc1ccc2c(c1)oc1c(C)c3c(c(C)c12)C(=O)N(CCOS(C)(=O)=O)C3=O" then?
90.3

What do you get for "O=C(c1cccc(N2CCOCC2)n1)c1c[nH]c2ccccc12" ?
93

Another: O=C1CCC(C(=O)N/N=C/c2cc(F)ccc2F)N1 (stereo not given)
95.1

Query O=C(/C=C/C12c3ccccc3C(c3ccccc31)C1C(=O)NC(=O)C12)c1ccc(I)cc1 (stereo not given) next
37.8

====

System: RXF 393 renal
Assay: NCI-60 one-dose screen, 48 h (100 = growth as untreated, 0 = no growth, -100 = all killed)
Settings: 10 µM unless noted
This is part of a sample that, as a whole, favours compounds with a hit. Of some 83,000 tested, about 20% had one in any assay.
experimentalReadout: growth (%)
Enter your answer as a number in %; do not include the unit.

I would be grateful if you could share the reported growth for "COc1ccc(C/C(C)=C(\c2ccc(Cl)cc2)c2ccc(OCCCN(C)C)cc2)cc1" .
72.4

Query "C=CC(=O)Nc1cccc(Oc2nccc(Nc3nnc(-c4ccc(Br)cc4)s3)n2)c1" next
101

Please do the same for "COC(=O)[C@]1(C)CCC[C@]2(C)[C@H]3C[C@@H]4[C@H]5[C@@H]6CC/C(=N\OCC/C(N)=N/O)[C@H]5[C@@]3(CC[C@H]21)CC4(C(C)C)O6" as well.
42.5

Next: "Cc1sc2nc(NCCN)[nH]c(=O)c2c1C"
100

// same read-out, input: "Cc1cc2oc(/C=C/c3ccccc3)cc(=O)c2c(C)c1Cl"
98

====

Test system: SK-MEL-5 melanoma
Assay: NCI-60 one-dose screen, 48 h (100 = growth as untreated, 0 = no growth, -100 = all killed)
Conditions: 10 µM unless noted
The panel holds about 83,000 compounds, 20% with a hit somewhere; the sample as a whole holds those more often.
The compounds listed here are annotated with their growth.
The figure you give is taken to be in %; do not add the unit.

Check out these entries, answers already filled in.
compound	growth [%]
Nc1nc(N)c2c(n1)NC(c1cccc(Nc3ccnc4cc(C(F)(F)F)ccc34)c1)CC(c1ccc3c(c1)OCO3)=N2 (stereo unspecified)	66.4
N#Cc1ccc(O)c(C2=NCC(c3ccc(-c4ccccc4)cc3)O2)c1 (stereo unspecified)	3.96
COC(=O)c1c2c(c(C)[n+]([O-])c1C)C(=O)C(NCc1ccccc1)=CC2=O	-84.9
Fc1ccc2[nH]cc(-c3nc(-c4c[nH]c5c(Cl)nccc45)cs3)c2c1	60.4
CN1CCN(Cc2ccc(NC(=O)c3cncc(C#Cc4cnc(N)cc4C#N)c3)cc2C(F)(F)F)CC1	9.34
CC(C)Cc1nc(Nc2ccccc2)[nH]c(=O)c1C#N	48.7
CCOC(=O)C1=C(c2ccccc2)N=C2N(c3ccccc3)N=C(C(C)=O)N2C1c1ccc(F)cc1 (stereo unspecified)	97.6
O=c1ccc2ccc(OCCN3CCCCC3)cc2o1	107

Reported growth for SK-MEL-5 melanoma, given "Cc1nc(N/N=C/c2cn(-c3ccccc3)nc2-c2cc3ccccc3oc2=O)sc1N=Nc1ccccc1" ?
93.3

Would you kindly repeat that for "CN(C)c1ccc(/C=C2\C=C(c3nc4ccccc4s3)OC2=O)cc1" ?
96.4

Lookup "Fc1cccc(CNc2c3ccccc3nc3ccccc23)c1"
60.5

====

Test system: MDA-MB-435 melanoma
Experiment: NCI-60 one-dose screen, 48 h
Details: 10 µM unless noted
This is part of a sample that, as a whole, favours compounds with a hit. Of some 83,000 tested, about 20% had one in any assay. Activity calls are given as the source filed them. The calls were made as follows: active = growth percent below 10; inactive = the rest.
Tick one outcome: label 1 for active, label 0 for inactive

Look over these answered cases.
compound	testedSystem	answerLabel
COc1cc(/C=C/C(=O)c2cccc(-n3cc(-c4ccc(Cl)cc4)[nH]c3=O)c2)ccc1O	MDA-MB-435 melanoma	label 0
COC(=O)c1nc(-c2ccccc2)oc1S(=O)(=O)N1CCCC(C)C1 (stereo unspecified)	MDA-MB-435 melanoma	label 0
Cc1ccc(S(=O)(=O)OCC#CCOS(=O)(=O)c2ccc(C)cc2)cc1	MDA-MB-435 melanoma	label 0

Please state the recorded outcome for this compound: Cc1ccc2c(c1)nc(C)n2-c1ncnc2c1CC(C)c1cc(O)ccc1N2C (stereo unspecified)
label 1

Do the same for "N=C(N)c1ccc(-c2ccc(-c3cc(Cl)cc(Cl)c3)s2)s1" please
label 1

Likewise for "CN(C)Cc1ccc(NC(=O)c2cncc(C#Cc3cnc(N)c4ncccc34)c2)cc1C(F)(F)F" ?
label 1

====

Tested on: NCI-H522 lung
Test: NCI-60 one-dose screen, 48 h (100 = growth as untreated, 0 = no growth, -100 = all killed)
Details: 10 µM unless noted
Compounds without any hit were thinned out: in the full panel of roughly 83,000, 20% have a hit. Calls of active or inactive are those of the source. The calls were made as follows: active = growth percent below 10; inactive = the rest.
experimentalReadout: growth

molecule	testedSystem	experimentalReadout	result
CN(C)CCCn1c2c(c3cnccc3c1=O)C(=O)c1ccccc1-2	NCI-H522 lung	growth	-28.2% (active)
C=C1C(=O)O[C@@H]2C3C(=C(C)CC[C@@H]12)CC1O[C@]13C (some centres undefined)	NCI-H522 lung	growth	-52.3% [6.75 µM] (active)
CCN(CC)CCCC(Cc1ccccc1)Nc1c2ccc(Cl)cc2nc2ccc(OC)cc12 (centres undefined)	NCI-H522 lung	growth	1.88% (active)
COCCn1cc(-c2csc(-c3c[nH]c4ccc(F)cc34)n2)c2cccnc21	NCI-H522 lung	growth	-11.7% (active)
O=C(NC1CCC(Br)CC1)C1CCCC(S(=O)(=O)NC2CCCCC2)C1 (centres undefined)	NCI-H522 lung	growth	-3.79% [25 µM] (active)

Param item = O=C1OCC2=C1C(c1ccccc1)c1cc3c(cc1N2CCO)OCCO3 (centres undefined) ; retrieve measured growth.
-47.4% (active)

Can you check "Oc1c(CN2CCC(N3CCOCC3)CC2)cc(Cc2cc(CN3CCC(N4CCOCC4)CC3)c(O)c3ncccc23)c2cccnc12" next?
15.4% (inactive)

// same read-out, input: O=C(/C=C/C12c3ccccc3C(c3ccccc31)C1C(=O)NC(=O)C12)c1ccc(I)cc1 (centres undefined)
55% (inactive)

Lookup "Cc1c(C(C)(C)O)cn2ncnc(Oc3ccc(NC(=O)Nc4ccc(Cl)c(C(F)(F)F)c4)c(F)c3)c12"
39.9% (inactive)

Could you do the same for COC1/C=C/OC2(C)Oc3c(C)c(O)c4c(O)c(c(/C=N/N(c5ccccc5)c5ccccc5)c(O)c4c3C2=O)NC(=O)C(C)=C/C=C/C(C)C(O)C(C)C(O)C(C)C(OC(C)=O)C1C (centres undefined) , please?
37.6% (inactive)

Next entry: "O=c1oc2ccccc2cc1-c1nn(-c2ccccc2)cc1-c1nn[nH]n1"
94.6% (inactive)

Another molecule: "CC(C)(C)c1ccc(S(=O)(=O)Oc2ccc(-c3sc4cc(OS(=O)(=O)c5ccc(C(C)(C)C)cc5)ccc4c3C(=O)c3ccc(OCCN4CCCCC4)cc3)cc2)cc1"
72% (inactive)

Let us now turn to "N=C(N)c1ccc(OCCSCCOc2ccc(C(=N)N)cc2)cc1"
48.5% (inactive)
